Source listed as paper PMC7866225.

System: HepG2 cells
experimental-details: In vitro cytotoxicity, MTT assay
Assay type: cell-based
test-conditions: HepG2, MTT, 0–1000 µg/mL, 24 h
quantity-name: Status

Lab note: measured Status of Cc1ccc(NC(=S)NN=Cc2cc3cccc(C)c3nc2N2CCCCC2)c(C)c1 [Compound 6c] was Proliferative

Value of measured Status for the entry Cc1ccc(NC(=S)NN=Cc2cc3cc(C)ccc3nc2N2CCCCC2)c(C)c1 [Compound 5c] : Proliferative

For reference, reported Status for Cc1ccc2nc(N3CCCCC3)c(C=NNC(=S)Nc3ccccc3F)cc2c1 [Compound 5h] stands at Proliferative

====

experimental-details: In vitro cytotoxicity, MTT assay
Type: cell-based
test-conditions: human, HepG2 cells; HepG2, 1000 μg/mL, 24 h, control = 100; read-out: Cell Viability
Doc: threshold 200% (exclusive). Items with viability at 24 h, 1000 μg/mL beneath it return y; others return n.

Below, 4 compounds whose answers are already recorded.
input: Could you please tell me whether viability at 24 h, 1000 μg/mL recorded for Cc1ccc2nc(N3CCCCC3)c(C=NNC(N)=S)cc2c1 is less than 200%?
output: y

input: Regarding Cc1ccc(NC(=S)NN=Cc2cc3cccc(C)c3nc2N2CCCCC2)c(C)c1 , kindly confirm whether its viability at 24 h, 1000 μg/mL is beneath 200%.
output: n

input: Lab log: compare recorded viability at 24 h, 1000 μg/mL with 200%; is it strictly lower for CCc1ccc(NC(=S)NN=Cc2cc3cccc(C)c3nc2N2CCCCC2)cc1 ?
output: y

input: viability at 24 h, 1000 μg/mL under 200%? Item: Cc1ccc(NC(=S)NN=Cc2cc3cc(C)ccc3nc2N2CCCCC2)c(C)c1
output: n

---
input: Would you kindly verify if viability at 24 h, 1000 μg/mL of Cc1ccc2nc(N3CCCCC3)c(C=NNC(=S)Nc3ccccc3F)cc2c1 is strictly less than 200%?
output: n

input: Record Cc1ccc2nc(N3CCCCC3)c(C=NNC(=S)Nc3cccc(Cl)c3)cc2c1 : is its viability at 24 h, 1000 μg/mL strictly below 200%?
output: y

input: Input Cc1ccc2nc(N3CCCCC3)c(C=NNC(=S)Nc3ccccc3)cc2c1 ; condition: viability at 24 h, 1000 μg/mL strictly below 200%. Does it hold?
output: n

input: Lab note: viability at 24 h, 1000 μg/mL threshold 200%. Does this compound come in strictly under it? Cc1cccc2cc(C=NNC(=S)NCCN3CCOCC3)c(N3CCCCC3)nc12
output: y

input: Please let me know if CCc1ccc(NC(=S)NN=Cc2cc3cc(C)ccc3nc2N2CCCCC2)cc1 shows viability at 24 h, 1000 μg/mL below 200%.
output: y
